System: LXRa homodimer (NR concentration 270 nM)
Experiment: PBM binding z-score (relative to random genomic background probes); higher = stronger binding; sequences stand for … in GC…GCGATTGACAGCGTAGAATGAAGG
Listed next: entries and their corresponding PBM binding z-score.
Please reply with the number alone, leaving off any unit.

* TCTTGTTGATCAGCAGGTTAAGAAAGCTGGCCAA | -0.308

Report PBM binding z-score for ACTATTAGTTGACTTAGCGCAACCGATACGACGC please.
0.033

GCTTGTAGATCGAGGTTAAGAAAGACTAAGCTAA , same question.
-0.228

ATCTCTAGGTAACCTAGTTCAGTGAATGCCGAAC , same question.
0.16

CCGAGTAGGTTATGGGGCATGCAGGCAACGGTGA , same question.
-0.12

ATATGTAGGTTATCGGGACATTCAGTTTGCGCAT , same question.
0.715

----------
Test system: PPARg:RXRa 30nM:10nM, anti-RXR (NR concentration 30 nM, RXRa partner concentration 10 nM)
Test: PBM binding z-score (relative to random genomic background probes); higher = stronger binding; sequences stand for … in GC…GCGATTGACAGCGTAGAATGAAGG
endpoint label: PBM binding z-score
Please reply with the number alone, leaving off any unit.

See these solved cases before continuing.
- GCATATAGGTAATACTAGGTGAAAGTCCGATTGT: 1.09
- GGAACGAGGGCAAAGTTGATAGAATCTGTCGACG: 6.22
- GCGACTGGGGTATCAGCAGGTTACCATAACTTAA: -0.489

Report PBM binding z-score for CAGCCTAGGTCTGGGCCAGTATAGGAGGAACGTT please.
-0.869

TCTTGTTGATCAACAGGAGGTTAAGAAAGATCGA , same question.
2.18

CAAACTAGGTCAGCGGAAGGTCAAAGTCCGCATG , same question.
4.12

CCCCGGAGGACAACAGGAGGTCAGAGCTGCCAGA , same question.
-0.809

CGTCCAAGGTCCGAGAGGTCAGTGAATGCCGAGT , same question.
-0.759

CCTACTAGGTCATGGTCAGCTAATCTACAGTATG , same question.
3.38

----------
Tested on: RARa:RXR (NR concentration 270 nM, RXRa partner concentration 90 nM)
Experiment: PBM binding z-score (relative to random genomic background probes); higher = stronger binding; sequences stand for … in GC…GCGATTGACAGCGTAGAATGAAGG
Kindly return fulfilled if reported PBM binding z-score is no lower than 2; return not fulfilled if it is lower.

• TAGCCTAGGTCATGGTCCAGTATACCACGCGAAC = fulfilled
• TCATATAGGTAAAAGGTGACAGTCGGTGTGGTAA = fulfilled
• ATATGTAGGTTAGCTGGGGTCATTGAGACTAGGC = fulfilled

Could you tell me if the measured PBM binding z-score of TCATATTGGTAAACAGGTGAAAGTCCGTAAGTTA reaches 2 or more?
not fulfilled

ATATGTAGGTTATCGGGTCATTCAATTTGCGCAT , same question.
fulfilled

----------
Test system: THRa:RXRa (NR concentration 90 nM, RXRa partner concentration 90 nM)
Assay: PBM binding z-score (relative to random genomic background probes); higher = stronger binding; sequences stand for … in GC…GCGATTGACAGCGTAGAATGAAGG
endpoint label: PBM binding z-score
Please reply with the number alone, leaving off any unit.

See these solved cases before continuing.
* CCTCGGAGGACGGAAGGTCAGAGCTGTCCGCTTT | 1.94
* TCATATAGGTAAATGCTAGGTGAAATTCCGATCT | 1.29
* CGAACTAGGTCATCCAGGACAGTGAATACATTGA | 3.59
* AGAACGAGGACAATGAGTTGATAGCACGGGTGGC | 2.19
* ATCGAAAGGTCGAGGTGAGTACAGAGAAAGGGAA | 3.1

Report PBM binding z-score for CCGACTGGGGCATAAGGCTACCATAAGCCAGCCC please.
-0.225

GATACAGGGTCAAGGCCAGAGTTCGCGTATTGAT , same question.
3.64

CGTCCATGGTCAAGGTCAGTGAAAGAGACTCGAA , same question.
2.84
